System: Human normal epidermal keratinocytes NHEK (NB)
Assay: Cytotoxicity test (Neutral Red, cell survival rate)
Format: cell-based
Settings: 500 μM, 24 hours, relative to light absorbance of the control
Description: Human normal epidermal keratinocytes NHEK (NB) (manufactured by KURABO INDUSTRIES LTD.) were precultured with HuMedia-KG2 (manufactured by KURABO INDUSTRIES LTD.) and the precultured human normal epidermal keratinocytes were adjusted in a concentration of 15×10^4 cells/mL. […] The light absorbance of the resultant sample was measured using a plate reader at 540/630 nm. […]
Readout type: Cell survival rate (%)

>>> result("CCCCCC(=O)N[C@H](C(=O)O)C(C)C")
99
>>> result("CCCC(=O)N[C@H](C(=O)O)C(C)C")
102
>>> result("CCCCCCCCCC(=O)N[C@H](C(=O)O)C(C)C")
75
>>> result("CCCCCCCC(=O)N[C@H](C(=O)O)C(C)C")
100
>>> result("CC(=O)N[C@H](C(=O)O)C(C)C")
105
>>> result("CCCCCCCCCCCC(=O)N[C@H](C(=O)O)C(C)C")
3

Cited source for all entries: patent US10406086B2
